Assay: Gas chromatography assay of actives in mouth freshener film
Assay type: physicochemical
Conditions: content in mouth freshener film
observable: GC Result (%)

• CC1CCC(C(C)C)C(O)C1 (stereo not shown) = 0.035
• Cc1ccc(C(C)C)c(O)c1 = 0.097
• COC(=O)c1ccccc1O [Methyl Salicylate] = 0.052

====

Each entry below lists one item and its recorded Assay result (%) value.
Test: Gas chromatography assay of actives in mouth freshener film
Assay type: physicochemical
Details: GC result relative to formula content, mouth freshener film
observable: Assay result (%)

- CC1CCC(C(C)C)C(O)C1 (stereo not shown): 92.1%
- COC(=O)c1ccccc1O [Methyl Salicylate]: 92.8%
- CC12CCC(CC1)C(C)(C)O2: 96.6%
- Cc1ccc(C(C)C)c(O)c1: 104.3%
